From: patent US20260008783A1

# assay_system: Follicle Stimulating Hormone Receptor (FSHR) (Homo sapiens, UniProt P23945)
# Construct: HA (N)
# assay_comment: HTRF cAMP agonist assay, FSHR, transiently transfected CHO-K1 cells
# condition_summary: CHO-K1 cells transiently expressing human FSHR, read-out: IC50 FSHR LANCE CAMP
pIC50: −log10 of the molar value.
recorded_endpoint: pIC50

A = COc1cc2c(cc1-c1cncc(C(N)=O)c1)-c1c(c(C(=O)N3CNC(=O)C3(C)C)nn1-c1cc(Cl)cc(Cl)c1)CC2
B = CCCN1CCN(C(=O)c2nn(-c3cc(Cl)cc(Cl)c3)c3c2CCc2cc(OC)c(-c4cncc(C(N)=O)c4)cc2-3)C(C)(C)C1
C = COc1cc2c(cc1-c1cncc(C(N)=O)c1)-c1c(c(C(=O)N3C4CC3CN(C)C4)nn1-c1cc(Cl)cc(Cl)c1)CC2
input: Falling order of pIC50, please. Response format: the labels, sorted as the prompt asks.
output: A, C, B

---

# assay_system: Follicle Stimulating Hormone Receptor (FSHR) (Homo sapiens)
# Construct: HA (N)
# Sequence (P23945 18-695): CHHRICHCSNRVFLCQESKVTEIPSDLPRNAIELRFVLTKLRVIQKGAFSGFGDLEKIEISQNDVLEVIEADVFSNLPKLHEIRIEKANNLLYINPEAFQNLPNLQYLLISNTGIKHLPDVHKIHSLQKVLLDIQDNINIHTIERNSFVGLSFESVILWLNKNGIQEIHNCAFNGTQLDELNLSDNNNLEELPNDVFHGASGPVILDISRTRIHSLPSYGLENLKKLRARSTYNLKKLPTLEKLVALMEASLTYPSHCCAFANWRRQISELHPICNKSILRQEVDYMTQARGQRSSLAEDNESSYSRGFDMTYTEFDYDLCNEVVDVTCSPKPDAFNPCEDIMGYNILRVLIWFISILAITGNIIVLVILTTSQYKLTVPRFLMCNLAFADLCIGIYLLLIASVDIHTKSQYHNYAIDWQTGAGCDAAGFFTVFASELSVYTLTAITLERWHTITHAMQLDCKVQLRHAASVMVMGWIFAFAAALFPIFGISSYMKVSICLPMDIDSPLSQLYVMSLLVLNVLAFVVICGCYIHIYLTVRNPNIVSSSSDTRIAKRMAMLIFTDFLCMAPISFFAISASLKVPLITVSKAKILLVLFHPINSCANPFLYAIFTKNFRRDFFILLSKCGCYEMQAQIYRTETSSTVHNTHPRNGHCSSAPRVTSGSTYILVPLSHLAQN
# assay_comment: HTRF cAMP agonist assay, FSHR, transiently transfected CHO-K1 cells
# condition_summary: CHO-K1 cells transiently expressing human FSHR, read-out: IC50 FSHR LANCE CAMP
pIC50: −log10 of the molar value.
recorded_endpoint: pIC50

Would you please look over these solved cases?
compound	value
CCN1CCN(C(=O)c2nn(-c3cc(Cl)cc(Cl)c3)c3c2CCc2cc(OC)c(-c4cncc(C(N)=O)c4)cc2-3)C(C)(C)C1	7.41
COc1cc2ccc3c(C(=O)N4CCOCC4(C)C)nn(-c4cc(Cl)cc(Cl)c4)c3c2cc1-c1ccn(C)n1	7.08
O=C(c1nn(-c2ccccn2)c2c1CCc1ccc(-c3cccnc3)cc1-2)N1CCNC(=O)C12CC2	5.27
COc1cc2c(cc1-c1cncc(C(N)=O)c1)-c1c(c(C(=O)N3CCOCC3(C)C)nn1-c1ccccc1)CC2	8.25

1 = COc1cc2c(cc1-c1cncc(C(N)=O)c1)-c1c(c(C(=O)N3[C@H](C)CNC[C@@H]3C)nn1-c1cc(Cl)cc(Cl)c1)CC2
2 = COc1cc2c(cc1-c1cncc(C(N)=O)c1)-c1c(c(C(=O)N3CCN(CCO)C(=O)C3(C)C)nn1-c1cc(Cl)cc(Cl)c1)CC2
input: Please indicate which item has the smaller measured pIC50: 1 versus 2 # answer = label of selected item
output: 2
(2: 6.85, 1: 8.27)
